target: Neuronal acetylcholine receptor subunit alpha-7 (Rattus norvegicus, UniProt Q05941)
Sequence (Q05941 whole entry): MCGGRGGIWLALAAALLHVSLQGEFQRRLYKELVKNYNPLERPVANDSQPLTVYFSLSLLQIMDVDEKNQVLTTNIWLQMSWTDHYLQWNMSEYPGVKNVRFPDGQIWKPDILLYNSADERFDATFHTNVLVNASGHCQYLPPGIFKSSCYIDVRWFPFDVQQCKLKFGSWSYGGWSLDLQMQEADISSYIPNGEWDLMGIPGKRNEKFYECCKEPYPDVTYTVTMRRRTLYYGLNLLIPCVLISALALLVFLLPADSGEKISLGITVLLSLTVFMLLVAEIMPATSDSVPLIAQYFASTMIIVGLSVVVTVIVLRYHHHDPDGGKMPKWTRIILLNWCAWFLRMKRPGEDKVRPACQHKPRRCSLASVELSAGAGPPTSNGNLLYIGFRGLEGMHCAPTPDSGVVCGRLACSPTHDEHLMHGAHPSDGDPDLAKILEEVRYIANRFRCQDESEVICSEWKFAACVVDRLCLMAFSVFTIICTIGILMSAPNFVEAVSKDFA
pKi: −log10 of the molar value.
Observable: pKi

Consider the worked cases shown below.
[
  {
    "Compound": "C[C@H](CCOC(=O)N(C)C)N(C)C",
    "Target": "Neuronal acetylcholine receptor subunit alpha-7 (Rattus norvegicus, UniProt Q05941)",
    "pKi": "< 5.00"
  },
  {
    "Compound": "COC(=O)Nc1ccc(Cl)c(Cl)c1",
    "Target": "Neuronal acetylcholine receptor subunit alpha-7 (Rattus norvegicus, UniProt Q05941)",
    "pKi": "< 5.00"
  }
]

// below: pKi requested for another compound
Incoming: Please look at this compound and report its pKi: O=c1cccc2n1CC1CNCC2C1 (stereo not drawn)
Outgoing: < 5.00

====

molecular target: Nicotinic acetylcholine receptor (Rattus leucopus, UniProt Q62594)
Sequence (Q62594 whole entry): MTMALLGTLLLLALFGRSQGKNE
Overview of reported pKi across a group of compounds:
// pKi is dimensionless: -log10 of concentration (M)

Consider the worked cases shown below.
[
  {
    "Mol": "CN(C)C(=O)OCC[N+](C)(C)C",
    "Quantitative readout": 7.70
  },
  {
    "Mol": "COC(=O)Nc1ccc(Cl)c(Cl)c1",
    "Quantitative readout": 7.64
  },
  {
    "Mol": "C[C@H](CCOC(=O)N(C)C)N(C)C",
    "Quantitative readout": 8.05
  }
]

// below: pKi requested for another compound
Incoming: Return reported pKi for target or system Nicotinic acetylcholine receptor (Rattus leucopus, UniProt Q62594), item CN(C)CCOC(=O)N(C)C .
Outgoing: 5.24

====

A short record of Ki observed with Neuronal acetylcholine receptor subunit alpha-3 (Rattus norvegicus) follows.
Sequence (P04757 whole entry): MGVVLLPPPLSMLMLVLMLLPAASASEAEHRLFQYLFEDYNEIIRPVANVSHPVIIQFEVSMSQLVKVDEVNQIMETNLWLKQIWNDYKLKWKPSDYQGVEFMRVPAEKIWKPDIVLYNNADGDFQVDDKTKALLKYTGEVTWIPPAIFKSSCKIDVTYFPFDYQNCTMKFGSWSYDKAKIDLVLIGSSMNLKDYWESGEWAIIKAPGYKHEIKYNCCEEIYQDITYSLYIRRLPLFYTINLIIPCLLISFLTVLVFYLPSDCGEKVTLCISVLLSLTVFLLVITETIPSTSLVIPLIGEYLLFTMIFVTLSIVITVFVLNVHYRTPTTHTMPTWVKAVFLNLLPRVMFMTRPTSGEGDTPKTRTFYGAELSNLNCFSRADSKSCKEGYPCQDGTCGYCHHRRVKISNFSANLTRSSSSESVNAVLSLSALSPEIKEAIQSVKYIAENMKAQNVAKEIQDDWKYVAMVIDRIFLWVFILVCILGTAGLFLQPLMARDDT
State the answer as a number, implicitly in nM.

[
  {
    "Compound": "O=c1cccc2n1CC1CNCC2C1 (stereo not drawn) [CAS_485-35-8]",
    "Ki, nM": 130
  },
  {
    "Compound": "COC(=O)Nc1ccc(Cl)c(Cl)c1 [SWEP]",
    "Ki, nM": 2700
  }
]

Incoming: Please look at this compound and report its Ki: C[C@H](CCOC(=O)N(C)C)N(C)C
Outgoing: 370

====

Target: Muscarinic acetylcholine receptor M2 (Rattus norvegicus, UniProt P10980)
Sequence (P10980 whole entry): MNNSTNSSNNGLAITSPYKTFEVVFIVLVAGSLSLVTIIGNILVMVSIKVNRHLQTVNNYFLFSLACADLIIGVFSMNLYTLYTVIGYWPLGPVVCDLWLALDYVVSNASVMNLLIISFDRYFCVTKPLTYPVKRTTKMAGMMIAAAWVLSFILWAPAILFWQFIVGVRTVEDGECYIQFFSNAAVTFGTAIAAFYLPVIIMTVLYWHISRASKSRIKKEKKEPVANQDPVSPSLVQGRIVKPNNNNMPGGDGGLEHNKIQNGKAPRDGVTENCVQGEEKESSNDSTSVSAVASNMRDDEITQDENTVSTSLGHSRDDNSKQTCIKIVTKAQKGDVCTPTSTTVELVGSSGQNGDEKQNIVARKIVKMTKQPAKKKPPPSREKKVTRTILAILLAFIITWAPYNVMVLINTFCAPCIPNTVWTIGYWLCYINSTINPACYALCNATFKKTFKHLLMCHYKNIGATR
Observable: pKi
// pKi is dimensionless: -log10 of concentration (M)

[
  {
    "Mol": "COC(=O)Nc1ccc(Cl)c(Cl)c1",
    "Target": "Muscarinic acetylcholine receptor M2 (Rattus norvegicus, UniProt P10980)",
    "pKi": 6.82
  },
  {
    "Mol": "C[C@H](CCOC(=O)N(C)C)N(C)C",
    "Target": "Muscarinic acetylcholine receptor M2 (Rattus norvegicus, UniProt P10980)",
    "pKi": 5.44
  }
]

Incoming: Please look at this compound and report its pKi: CN(C)C(=O)OCC[N+](C)(C)C
Outgoing: 5.92
